Biological target: CYP2C9 (Homo sapiens)
Construct: Eurofins Panlabs, Inc. (contract laboratory)
Sequence (P11712 whole entry): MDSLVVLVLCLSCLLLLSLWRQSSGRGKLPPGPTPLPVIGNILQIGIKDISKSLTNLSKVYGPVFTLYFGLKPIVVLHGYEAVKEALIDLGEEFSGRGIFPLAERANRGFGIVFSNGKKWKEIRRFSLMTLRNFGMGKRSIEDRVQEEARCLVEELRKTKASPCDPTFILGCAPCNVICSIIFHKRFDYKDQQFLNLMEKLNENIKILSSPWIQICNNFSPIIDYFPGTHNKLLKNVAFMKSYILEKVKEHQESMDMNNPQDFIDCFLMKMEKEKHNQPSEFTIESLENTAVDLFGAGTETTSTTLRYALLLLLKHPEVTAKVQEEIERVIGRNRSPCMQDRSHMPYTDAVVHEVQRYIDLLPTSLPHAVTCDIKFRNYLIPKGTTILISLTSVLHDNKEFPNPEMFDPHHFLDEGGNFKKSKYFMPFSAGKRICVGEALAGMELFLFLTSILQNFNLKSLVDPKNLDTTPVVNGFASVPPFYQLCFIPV
Test: Cytochrome P450 inhibition assay, CYP2C9
Format: in vitro ADME
Details: 1.0E-07 M
VALUE_KIND: inhibition at 100 nM (%)
Value expressed in %; do not type the unit.

Q: // returns reported inhibition at 100 nM for input O=C(N[C@H]1CC[C@@]2(O)[C@H]3Cc4ccc(O)c5c4[C@@]2(CCN3CC2CC2)[C@H]1O5)c1nccs1
Ans: 0.6

====

Biological target: CYP1A2 (Homo sapiens, UniProt P05177)
Construct: Eurofins Panlabs, Inc. (contract laboratory)
Sequence (P05177 whole entry): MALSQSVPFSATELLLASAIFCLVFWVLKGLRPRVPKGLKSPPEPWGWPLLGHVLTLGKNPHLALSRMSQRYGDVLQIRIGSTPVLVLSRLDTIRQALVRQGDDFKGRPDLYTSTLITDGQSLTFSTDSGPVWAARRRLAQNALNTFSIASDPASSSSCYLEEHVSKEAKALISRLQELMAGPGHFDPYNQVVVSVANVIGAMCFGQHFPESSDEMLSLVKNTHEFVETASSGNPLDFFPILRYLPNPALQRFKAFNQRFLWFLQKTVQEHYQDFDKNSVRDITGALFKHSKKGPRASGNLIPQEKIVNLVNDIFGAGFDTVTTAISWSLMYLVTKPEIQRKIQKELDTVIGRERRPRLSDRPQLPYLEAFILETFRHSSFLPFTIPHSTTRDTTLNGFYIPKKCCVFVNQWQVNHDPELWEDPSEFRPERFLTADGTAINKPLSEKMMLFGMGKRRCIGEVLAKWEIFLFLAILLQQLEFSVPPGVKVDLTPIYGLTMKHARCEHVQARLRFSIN
Assay: Cytochrome P450 inhibition assay, CYP1A2
Assay type: in vitro ADME
Conditions: 1.0E-05 M
VALUE_KIND: inhibition at 10 µM (%)
Give the number; % is assumed, so skip it.

Q: Look up inhibition at 10 µM for this compound: O=C(N[C@H]1CC[C@@]2(O)[C@H]3Cc4ccc(O)c5c4[C@@]2(CCN3CC2CC2)[C@H]1O5)c1nccs1 [Compound 6]
Ans: 7.4
